Target: IRAK-4 (Homo sapiens)
Sequence (Q9NWZ3 1-460): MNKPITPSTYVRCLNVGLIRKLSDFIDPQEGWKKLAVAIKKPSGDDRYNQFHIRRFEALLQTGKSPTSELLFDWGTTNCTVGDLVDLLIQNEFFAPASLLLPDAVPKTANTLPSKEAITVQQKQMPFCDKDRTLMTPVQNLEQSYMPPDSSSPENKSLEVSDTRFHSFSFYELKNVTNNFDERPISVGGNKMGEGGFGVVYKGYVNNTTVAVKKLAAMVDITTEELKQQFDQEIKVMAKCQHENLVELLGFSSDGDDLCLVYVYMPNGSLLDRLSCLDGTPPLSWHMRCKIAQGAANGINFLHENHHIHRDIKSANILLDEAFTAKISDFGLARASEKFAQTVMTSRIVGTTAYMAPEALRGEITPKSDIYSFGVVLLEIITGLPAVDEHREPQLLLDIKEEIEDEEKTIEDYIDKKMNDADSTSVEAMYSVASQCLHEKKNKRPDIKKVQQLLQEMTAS
Experiment: IRAK-4 ELISA, PBMC degradation
Type: cell-based
Design: endogenous in cells; host or cells: PBMC
Conditions: treated overnight
measurement kind: Dmax

Find the measured Dmax: item O=C1CCC(N2Cc3cc(N4CC(F)(CN5CCC(n6cc7cc(NC(=O)c8cnn9cccnc89)c(OC8CCC8)cc7n6)CC5)C4)ccc3C2=O)C(=O)N1 (stereo not shown) , target or system IRAK-4 (Homo sapiens). 70 to 80%

Find the measured Dmax: item O=C1CCC(N2C(=O)c3ccc(N4CC(F)(CN5CCC(n6cc7cc(NC(=O)c8cnn9cccnc89)c(C8CC8)cc7n6)CC5)C4)cc3C2=O)C(=O)N1 (stereo not shown) , target or system IRAK-4 (Homo sapiens). ≥ 90%

Find the measured Dmax: item CC(C)Oc1cc2c(cc1NC(=O)c1cnn3cccnc13)CN(C1CCN(CC3(C)CN(c4ccc5c(c4)C(=O)N(C4CCC(=O)NC4=O)C5=O)C3)CC1)C2=O (stereo not shown) , target or system IRAK-4 (Homo sapiens). 80 to 90%

Find the measured Dmax: item CC(C)Oc1cc2c(cc1NC(=O)c1cnn3cccnc13)CN(C[C@@H](F)C1CN(CC3CCN(c4ccc5c(c4)C(=O)N(C4CCC(=O)NC4=O)C5=O)CC3)C1)C2=O (stereo partly shown) , target or system IRAK-4 (Homo sapiens). 80 to 90%

Find the measured Dmax: item O=C1CCC(N2C(=O)c3ccc(N4CCC(CN5CCC(N6Cc7cc(NC(=O)c8cnn9cccnc89)c(N8CCOCC8)cc7C6=O)CC5)CC4)cc3C2=O)C(=O)N1 (stereo not shown) , target or system IRAK-4 (Homo sapiens). ≥ 90%

Find the measured Dmax: item O=C1CCC(N2C(=O)c3ccc(N4CC(O[C@H]5CC[C@H](n6cc7cc(NC(=O)c8cnn9cccnc89)c(OCC8CC8)cc7n6)CC5)C4)cc3C2=O)C(=O)N1 (stereo partly shown) , target or system IRAK-4 (Homo sapiens). ≥ 90%

Find the measured Dmax: item CC(C)Oc1cc2nn([C@H]3CC[C@H](OC4CN(c5ccc6c(c5)CN(C5CCC(=O)NC5=O)C6=O)C4)CC3)cc2cc1NC(=O)c1cnn2cccnc12 (stereo partly shown) , target or system IRAK-4 (Homo sapiens). 80 to 90%

Find the measured Dmax: item O=C1CCC(N2C(=O)c3ccc(N4CC(F)(CN5CCC(N6Cc7cc(NC(=O)c8cnn9cccnc89)c(N8CCOCC8)cc7C6=O)CC5)C4)cc3C2=O)C(=O)N1 (stereo not shown) , target or system IRAK-4 (Homo sapiens). 70 to 80%

Find the measured Dmax: item CC(C)Oc1cc2c(cc1NC(=O)c1cnn3cccnc13)CN(C1CCN(CC3CN(c4cccc5c4n(C)c(=O)n5C4CCC(=O)NC4=O)C3)CC1)C2=O (stereo not shown) , target or system IRAK-4 (Homo sapiens). ≥ 90%

Find the measured Dmax: item CC(C)Oc1cc2c(cc1NC(=O)c1cnn3ccc(N4CCOCC4)nc13)CN(C1CCN(CC3CCN(c4ccc5c(c4)C(=O)N(C4CCC(=O)NC4=O)C5=O)CC3)CC1)C2=O (stereo not shown) , target or system IRAK-4 (Homo sapiens). 80 to 90%

Find the measured Dmax: item CN(C1CN(c2ccc3c(c2)CN(C2CCC(=O)NC2=O)C3=O)C1)[C@H]1CC[C@H](n2cc3cc(NC(=O)c4cnn5cccnc45)c(OCC4CC4)cc3c2)CC1 (stereo partly shown) , target or system IRAK-4 (Homo sapiens). ≥ 90%

Find the measured Dmax: item O=C1CCC(N2C(=O)c3ccc(C4CCN(C[C@H]5CC[C@H](n6cc7cc(NC(=O)c8cnn9cccnc89)c(OCC8CC8)cc7n6)CC5)CC4)cc3C2=O)C(=O)N1 (stereo partly shown) , target or system IRAK-4 (Homo sapiens). ≥ 90%

Find the measured Dmax: item O=C1CCC(N2Cc3cc(F)c(N4CC(F)(CN5CCC(n6cc7cc(NC(=O)c8cnn9cccnc89)c(OCC8CC8)cc7n6)CC5)C4)cc3C2=O)C(=O)N1 (stereo not shown) , target or system IRAK-4 (Homo sapiens). 80 to 90%

Find the measured Dmax: item O=C1CCC(N2C(=O)c3ccc(N4CC(O)(CN5CCC(n6cc7cc(NC(=O)c8cnn9cccnc89)c(OCC8CC8)cc7n6)CC5)C4)cc3C2=O)C(=O)N1 (stereo not shown) , target or system IRAK-4 (Homo sapiens). ≥ 90%

Find the measured Dmax: item CC(C)Oc1cc2nn(C3CCN(CCN4CCN(c5ccc6c(c5)C(=O)N(C5CCC(=O)NC5=O)C6=O)CC4)CC3)cc2cc1NC(=O)c1cnn2cccnc12 (stereo not shown) , target or system IRAK-4 (Homo sapiens). ≥ 90%

Find the measured Dmax: item O=C1CCC(N2C(=O)c3ccc(N4CCC(CN5CC[C@H](N6Cc7cc(NC(=O)c8cnn9cccnc89)c(N8CCOCC8)cc7C6=O)[C@@H](F)C5)CC4)cc3C2=O)C(=O)N1 (stereo partly shown) , target or system IRAK-4 (Homo sapiens). ≥ 90%
